target: HLA-B*5401 (Human); assay: competition with 125I-labelled standard peptide for purified HLA, gel filtration
measurement.label: binding affinity ratio (IC50 standard/IC50 test)

>  <binder>
NPSVAATLGF (modifications not checked)

>  <endpoint.value>
0.0003

$$$$
>  <binder>
QPGYPWPLY (modifications not checked)

>  <endpoint.value>
0.0002

$$$$
>  <binder>
PPPSWDQMW (modifications not checked)

>  <endpoint.value>
0.0002

$$$$
>  <binder>
QPEYDLELI (modifications not checked)

>  <endpoint.value>
0.0002

$$$$
